All values here come from patent US6706664B1.

Effects Large crabgrass listing for selected compounds.
system: Large crabgrass; assay: Soil treatment test for upland field; format: in vivo, Digitaria adscendens; parameters: key: 0: normal development; 1: Less damaged; 2: Slightly damaged; 3: Moderately damaged; 4: Severely damaged; 5: All killed; details: 500 g/ha, glass house 25° C., 3 weeks
Just the number.

Examples with answers:
compound	measured.value
CCC(Oc1cccc(C(F)(F)F)c1)c1nc2cc(I)ccc2o1 (stereo not drawn)	5
CCC(Oc1cccc(C(F)(F)F)c1)c1nc2cc(F)ccc2o1 (stereo not drawn)	5
CCC(Oc1ccc(F)c(C(F)(F)F)c1)c1nc2ccc(F)cc2o1 (stereo not drawn)	4
CCCC(Oc1ccc(F)c(C(F)(F)F)c1)c1nc2cc(C#N)c(Cl)cc2o1 (stereo not drawn)	5
CC(Oc1cccc(C(F)(F)F)c1)c1nc2ccc(C(F)(F)F)cc2o1 (stereo not drawn)	5

Turning now to a further compound:
[in] # query: Effects Large crabgrass of entry CC(Oc1cccc(C(F)(F)F)c1)c1nc2cc(Cl)ccc2o1 (stereo not drawn)
[out] 4
